Please find below Ki data on Peptidyl-prolyl cis-trans isomerase FKBP1A (Homo sapiens) compiled from the literature.
RESULT TYPE: Ki (µM)

1 = CCOCc1cccc(COCC)c1-c1cncc(C(OC(=O)[C@@H]2CCCCN2C(=O)C(=O)C(C)(C)C)/C(C)=C/c2ccncc2)c1 (some centres unmarked)
2 = COc1cc(C(F)(F)C(=O)N2CCC[C@H]2C(=O)OCCCc2ccccc2)cc(OC)c1OC
3 = CCOCc1cccc(COCC)c1-c1csc([C@@H](CCN2CCOCC2)OC(=O)[C@@H]2CCCCN2C(=O)C(=O)C(C)(C)C)c1
Order each entry by recorded Ki, climbing from the minimum. Labels, ranked as asked.
3, 1, 2
(3: 0.1 µM, 1: 0.27 µM, 2: 1.3 µM)

1 = COc1cccc(C(=O)C(=O)N2CCC[C@H]2C(=O)OCc2ccccc2)c1
2 = CCC(C)C(=O)C(=O)N1CCCC[C@H]1C(=O)OCc1ccccc1 (some centres unmarked)
3 = CCCC/C=C(\c1cncc([C@@H](OC(=O)[C@@H]2CCCCN2C(=O)C(=O)C(C)C)/C(C)=C/C2CCN(C)CC2)c1)C1CCCCC1
Please produce an ascending ranking of these compounds based on Ki. Labels, ranked as asked.
3, 2, 1

A = CCOc1ccc(OCC)c(-c2cncc([C@@H](CCCc3ccccc3)OC(=O)[C@@H]3CCCCN3C(=O)C(=O)c3ccc(OC)c(OC)c3)c2)c1
B = O=C(C(=O)N1CCCC[C@H]1C(=O)OCc1ccccc1)c1ccc(F)c(F)c1
C = CCC(C)(C)C(=O)C(=O)N1CCC[C@H]1C(=O)OCCCc1cc(OC)c(OC)c(OC)c1
Rank the 3 compounds: largest Ki first, smallest last. Labels, ranked as asked.
B, C, A

P = COc1cc(C(=O)C(=O)N2CCCC[C@H]2C(=O)OCCCCc2c[nH]c3ccccc23)cc(OC)c1OC
Q = CC(C)(C)C(=O)C(=O)N1CCC[C@H]1C(=O)OCCCc1cccnc1
Which shows the larger Ki value: P or Q ? Answer = label.
P

A = CO[C@H]1C[C@@H]2CC[C@@H](C)[C@@](O)(O2)C(=O)C(=O)N2CCCC[C@H]2C(=O)OC([C@H](C)C[C@@H]2CC[C@@H](O)[C@H](OC)C2)C/C=C(\C)[C@@H](O)CC(=O)[C@H](C)C[C@H](C)/C=C/C=C/C=C/1C (some centres unmarked)
B = CCC/C(=C/COC)c1cncc([C@H](CCN2CCOCC2)OC(=O)[C@@H]2CCCCN2C(=O)C(=O)C(C)(C)C(C)C)c1
Please indicate which entry, A or B , has the lower recorded Ki value. Answer = label.
A

* * *

Please find below Ki data on Peptidyl-prolyl cis-trans isomerase FKBP1A (Homo sapiens) compiled from the literature.
RESULT TYPE: Ki (nM)

// below: answered compounds
COMPOUND	ASSAYED TARGET	EXPERIMENTAL VALUE
C/C(=C\[C@H]1CC[C@@H](O)CC1)COC(=O)[C@@H]1CCCCN1C(=O)C(=O)c1ccccc1	Peptidyl-prolyl cis-trans isomerase FKBP1A (Homo sapiens)	600
CCC(C)(C)C(=O)C(=O)N1CSCC1C(=O)OCCCc1cccnc1 (stereo not shown)	Peptidyl-prolyl cis-trans isomerase FKBP1A (Homo sapiens)	638
CCOc1ccc(OCC)c(-c2cccc([C@@H](CCCc3ccccc3)OC(=O)[C@@H]3CCCCN3C(=O)C(=O)c3cc(OC)c(OC)c(OC)c3)c2)c1	Peptidyl-prolyl cis-trans isomerase FKBP1A (Homo sapiens)	1000

1 = CCC/C=C(\c1cncc([C@@H](CCN2CCOCC2)OC(=O)[C@@H]2CCCCN2C(=O)C(=O)[C@@H]2C[C@H](OCC)CC[C@H]2C)c1)C(C)C
2 = O=C(CCC1CCCCC1)C(=O)N1CCC[C@H]1C(=O)OCCCc1ccccc1
Which shows the larger Ki value: 1 or 2 ? Answer = label.
2
(2: 1020 nM, 1: 490 nM)
